Reported pKi values for the following compounds.
- System Under Test: Fatty acid-binding protein, heart (Homo sapiens)
- Sequence (P05413 whole entry): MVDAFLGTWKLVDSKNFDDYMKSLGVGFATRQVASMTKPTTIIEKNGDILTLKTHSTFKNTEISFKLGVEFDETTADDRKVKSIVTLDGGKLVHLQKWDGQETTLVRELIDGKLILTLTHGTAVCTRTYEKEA
- Method Description: Displacement of fluorescent 1-anilinonapthalene 8-sulfonic acid from human h-FABP by fluorescence spectrophotometry
Schema: pKi number; meaning minus log10 of the concentration expressed in molar units.

// solved cases for pKi follow
1) CC(Oc1cccc(-c2ccccc2-c2cc(-c3cccs3)n(-c3ccc(Cl)cc3)n2)c1)C(=O)O (stereo not drawn) = 5.64
2) O=C(O)COc1cccc(-c2ccccc2-c2cc(-c3cccs3)n(-c3ccc(Cl)cc3)n2)c1 = 5.37

Inquiry: Entry CCC(Oc1cccc(-c2ccccc2-c2cc(-c3cccs3)n(-c3ccc(Cl)cc3)n2)c1)C(=O)O (stereo not drawn) needs its pKi filled in; supply it.
Reply text: 5.43
